- Tested on: pigweed (Amaranthus retroflexus)
- ASSAY_METHOD_TEXT: Test A postemergence
- Type: in vivo
- CONDITION_DETAILS: Amaranthus retroflexus, post-emergence, 240 h, Postemergence, 31 g ai/ha; 0 is no effect, 100 is complete control; read-out: Pigweed plant response rating (0 to 100 scale)
READOUT_NAME: pest or weed control at 31 g/ha (%)
State the answer as a number, implicitly in %.

Short answer on pigweed (Amaranthus retroflexus) for CN1C[C@H](c2ccc(Cl)c(F)c2)[C@@H](C(=O)Nc2ccc(F)c(F)c2F)C1=O [Compound 1266] , pest or weed control at 31 g/ha: 20

Short answer on pigweed (Amaranthus retroflexus) for CN1C[C@H](c2ccc(C(F)(F)F)cc2)[C@@H](C(=O)Nc2cccnc2F)C1=O [Compound 1396] , pest or weed control at 31 g/ha: 30

Short answer on pigweed (Amaranthus retroflexus) for CN1C[C@H](c2ccc(C(F)F)cc2)[C@@H](C(=O)Nc2cccnc2F)C1=O [Compound 1274] , pest or weed control at 31 g/ha: 0

Short answer on pigweed (Amaranthus retroflexus) for CN1C[C@H](c2csc3c2CCC(F)(F)C3)[C@@H](C(=O)Nc2ccc(F)c(F)c2F)C1=O (racemic) [Compound 1368] , pest or weed control at 31 g/ha: 0

Short answer on pigweed (Amaranthus retroflexus) for CN1C[C@H](c2csc3c2CCC(F)(F)C3)[C@@H](C(=O)Nc2cccc(F)c2F)C1=O (racemic) [Compound 1369] , pest or weed control at 31 g/ha: 20

Short answer on pigweed (Amaranthus retroflexus) for O=C(Nc1ccc(F)c(F)c1F)[C@H]1C(=O)N(CC(F)F)C[C@@H]1c1cccc(C(F)(F)F)c1 [Compound 1297] , pest or weed control at 31 g/ha: 0

Short answer on pigweed (Amaranthus retroflexus) for N#Cc1ccc([C@H]2CNC(=O)[C@@H]2C(=O)Nc2cccc(F)c2F)cc1F [Compound 1193] , pest or weed control at 31 g/ha: 0

Short answer on pigweed (Amaranthus retroflexus) for CN1C[C@H](c2ccc(Cl)cc2)[C@@H](C(=O)Nc2cccc(F)n2)C1=O [Compound 1399] , pest or weed control at 31 g/ha: 0

The reported numbers originate from patent US12077503B2.
